- test-target: α-synuclein (UniProt P37840 1-140); also: test concentration or dose not given here
- assay-explanation: cell-based or functional assay
Non-standard residues stand in square brackets, D forms with d.
reported-metric: % decrease in ThT fluorescence (%)

Completed entries (count: 2):
binder	reported-metric	quantitative-readout
H-[dP][dY][dS][dV][dL][dI]-NH2 (SMILES CC[C@@H](C)[C@@H](NC(=O)[C@@H](CC(C)C)NC(=O)[C@H](NC(=O)[C@@H](CO)NC(=O)[C@@H](Cc1ccc(O)cc1)NC(=O)[C@H]1CCCN1)C(C)C)C(N)=O) [ZP-0228]	% decrease in ThT fluorescence	40.8
Ac-[dH][dH][dT][dV][dV][dA]-NH2 (SMILES CC(=O)N[C@H](Cc1c[nH]cn1)C(=O)N[C@H](Cc1c[nH]cn1)C(=O)N[C@@H](C(=O)N[C@@H](C(=O)N[C@@H](C(=O)N[C@H](C)C(N)=O)C(C)C)C(C)C)[C@H](C)O) [ZP-0180]	% decrease in ThT fluorescence	19.8

a: Ac-[dH][dH][dV][dI][dV][dT]-NH2 (SMILES CC[C@@H](C)[C@@H](NC(=O)[C@H](NC(=O)[C@@H](Cc1c[nH]cn1)NC(=O)[C@@H](Cc1c[nH]cn1)NC(C)=O)C(C)C)C(=O)N[C@@H](C(=O)N[C@@H](C(N)=O)[C@H](C)O)C(C)C) [ZP-0170]
b: Ac-[dH][dH][dV][dI][dV][dV]-NH2 (SMILES CC[C@@H](C)[C@@H](NC(=O)[C@H](NC(=O)[C@@H](Cc1c[nH]cn1)NC(=O)[C@@H](Cc1c[nH]cn1)NC(C)=O)C(C)C)C(=O)N[C@@H](C(=O)N[C@@H](C(N)=O)C(C)C)C(C)C) [ZP-0169]
c: Ac-[dR][dY][dS][dV][dL][dI]-NH2 (SMILES CC[C@@H](C)[C@@H](NC(=O)[C@@H](CC(C)C)NC(=O)[C@H](NC(=O)[C@@H](CO)NC(=O)[C@@H](Cc1ccc(O)cc1)NC(=O)[C@@H](CCCNC(=N)N)NC(C)=O)C(C)C)C(N)=O) [ZP-0212]
d: Ac-[dH][dH][dV][dE][dV][dA]-NH2 (SMILES CC(=O)N[C@H](Cc1c[nH]cn1)C(=O)N[C@H](Cc1c[nH]cn1)C(=O)N[C@@H](C(=O)N[C@H](CCC(=O)O)C(=O)N[C@@H](C(=O)N[C@H](C)C(N)=O)C(C)C)C(C)C) [ZP-0162]
Ask | Task for the reader: rank each entry by its % decrease in ThT fluorescence, from the minimum upward. List the labels according to the requested ordering.
Reply | b, d, a, c
